system: Acetylcholinesterase (Rattus norvegicus, UniProt P37136)
assay: Inhibition of Sprague-Dawley rat brain AChE by Michaelis-Menten equation
observation-type: Ki

Inquiry: Look up and state reported Ki for COc1cc(OC)c(C(=O)/C=C/c2ccccc2)c(O)c1CN1CCCCC1
Reply text: 2750 nM

* * *

system: Acetylcholinesterase (Rattus norvegicus, UniProt P37136)
Sequence (P37136 whole entry): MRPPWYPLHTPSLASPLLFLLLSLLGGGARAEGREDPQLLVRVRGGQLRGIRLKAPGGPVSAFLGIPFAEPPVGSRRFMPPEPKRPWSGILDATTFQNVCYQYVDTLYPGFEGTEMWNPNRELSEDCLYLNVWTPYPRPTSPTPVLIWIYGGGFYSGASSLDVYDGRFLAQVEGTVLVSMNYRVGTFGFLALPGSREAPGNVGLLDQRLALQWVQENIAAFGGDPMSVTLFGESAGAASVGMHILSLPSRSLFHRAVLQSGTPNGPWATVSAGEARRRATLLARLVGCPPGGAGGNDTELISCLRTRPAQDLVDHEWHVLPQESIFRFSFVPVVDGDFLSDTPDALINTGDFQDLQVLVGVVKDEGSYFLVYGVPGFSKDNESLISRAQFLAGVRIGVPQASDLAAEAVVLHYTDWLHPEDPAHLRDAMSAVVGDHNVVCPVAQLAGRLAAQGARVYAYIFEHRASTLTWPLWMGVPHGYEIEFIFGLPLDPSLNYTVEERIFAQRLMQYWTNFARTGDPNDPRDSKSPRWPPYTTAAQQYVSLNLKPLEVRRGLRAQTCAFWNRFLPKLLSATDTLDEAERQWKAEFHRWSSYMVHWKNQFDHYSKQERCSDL
observation-type: log10 IC50 (log10 of the value in µM)
Friendly reminder: values = log10 of IC50, unit µM.

Sample answers from the record:
{"smiles-record": "COc1cc(OC)c(C(=O)/C=C/c2ccccc2)c(O)c1CN1CCCCC1", "log10 IC50": 0.62}
{"smiles-record": "COc1cc(OC)c(C(=O)/C=C/c2ccccc2)c(O)c1CN1CCN(C)CC1", "log10 IC50": 1.09}
{"smiles-record": "COc1cc(OC)c(C(=O)/C=C/c2ccccc2)c(O)c1CN1CCCC1", "log10 IC50": 1.21}

Inquiry: Look up and state reported log10 IC50 for CCN(CC)Cc1c(OC)cc(OC)c(C(=O)/C=C/c2ccccc2)c1O
Reply text: 1.18

Inquiry: Look up and state reported log10 IC50 for COc1cc(OC)c(C(=O)/C=C/c2ccccc2)c(O)c1CN(C)C
Reply text: 1.27

Inquiry: Look up and state reported log10 IC50 for CCCN(CCC)Cc1c(OC)cc(OC)c(C(=O)/C=C/c2ccccc2)c1O
Reply text: 1.74

Inquiry: Look up and state reported log10 IC50 for COc1cc(OC)c(C(=O)/C=C/c2ccccc2)c(O)c1CN1CCOCC1
Reply text: 2.42

* * *

assay: Octanol-buffer partition coefficient, log p of the compound at pH 7.4 for 24 hrs by shake flask method
Type: physicochemical
observation-type: logD at 24 h
When you answer, write just the number.

{"smiles-record": "COc1cc(OC)c(C(=O)/C=C/c2ccccc2)c(O)c1CN1CCCCC1", "experimental-value": 1.75}

Inquiry: Look up and state reported logD at 24 h for COc1cc(OC)c(C(=O)/C=C/c2ccccc2)c(O)c1CN(C)C
Reply text: 1.61

Inquiry: Look up and state reported logD at 24 h for COc1cc(OC)c(C(=O)/C=C/c2ccccc2)c(O)c1CN1CCOCC1
Reply text: 1.63

Inquiry: Look up and state reported logD at 24 h for COc1cc(OC)c(C(=O)/C=C/c2ccccc2)c(O)c1CN1CCN(C)CC1
Reply text: 1.58

Inquiry: Look up and state reported logD at 24 h for COc1cc(OC)c(C(=O)/C=C/c2ccccc2)c(O)c1CN1CCCC1
Reply text: 1.74

Inquiry: Look up and state reported logD at 24 h for CCCN(CCC)Cc1c(OC)cc(OC)c(C(=O)/C=C/c2ccccc2)c1O
Reply text: 1.77

Inquiry: Look up and state reported logD at 24 h for CCN(CC)Cc1c(OC)cc(OC)c(C(=O)/C=C/c2ccccc2)c1O
Reply text: 1.69
